targetOfAssay: human recombinant HDAC6 (Homo sapiens (Human))
measurementNotes: HDAC6 enzyme activity inhibition assay (HDAC Fluorimetric Drug Discovery Kit)
recordedConditions: human recombinant HDAC6, same protocol as HDAC1 test
Consider the cut-off 60 nM. If the recorded IC50 is strictly smaller, the label is condition met; if not, the label is condition not met.

Known results for molecules:
| molecule | labelClass |
| --- | --- |
| Cl.O=S(=O)(N1CCNCC1)N(Cc1ccc(-c2nnc(C(F)(F)F)o2)cc1F)c1cccc(F)c1 [Compound 11309, Hydrochloride] | condition met |
| CS(=O)(=O)N1CCN(S(=O)(=O)N(Cc2ccc(-c3nnc(C(F)(F)F)o3)cc2F)c2cccc(F)c2)CC1 | condition not met |
| CC(=O)N1CCN(S(=O)(=O)N(Cc2ccc(-c3nnc(C(F)(F)F)o3)cc2F)c2cccnc2)CC1 | condition not met |
| CC(C)C(=O)N1CCN(S(=O)(=O)N(Cc2ccc(-c3nnc(C(F)F)o3)cc2F)c2ccccc2)CC1 | condition met |
| CC(C)N1CCN(S(=O)(=O)N(Cc2ccc(-c3nnc(C(F)F)o3)cc2)c2ccccc2)CC1 | condition not met |

Next molecule, please.
Q. Confirm or reject: IC50 of CN1CCN(S(=O)(=O)N(Cc2ccc(-c3nnc(C(F)F)o3)cc2)c2ccc(F)c(Cl)c2)CC1 lies strictly below 60 nM
A. condition met

---

targetOfAssay: human recombinant HDAC6 (Homo sapiens (Human), UniProt Q9UBN7)
Sequence (Q9UBN7 whole entry): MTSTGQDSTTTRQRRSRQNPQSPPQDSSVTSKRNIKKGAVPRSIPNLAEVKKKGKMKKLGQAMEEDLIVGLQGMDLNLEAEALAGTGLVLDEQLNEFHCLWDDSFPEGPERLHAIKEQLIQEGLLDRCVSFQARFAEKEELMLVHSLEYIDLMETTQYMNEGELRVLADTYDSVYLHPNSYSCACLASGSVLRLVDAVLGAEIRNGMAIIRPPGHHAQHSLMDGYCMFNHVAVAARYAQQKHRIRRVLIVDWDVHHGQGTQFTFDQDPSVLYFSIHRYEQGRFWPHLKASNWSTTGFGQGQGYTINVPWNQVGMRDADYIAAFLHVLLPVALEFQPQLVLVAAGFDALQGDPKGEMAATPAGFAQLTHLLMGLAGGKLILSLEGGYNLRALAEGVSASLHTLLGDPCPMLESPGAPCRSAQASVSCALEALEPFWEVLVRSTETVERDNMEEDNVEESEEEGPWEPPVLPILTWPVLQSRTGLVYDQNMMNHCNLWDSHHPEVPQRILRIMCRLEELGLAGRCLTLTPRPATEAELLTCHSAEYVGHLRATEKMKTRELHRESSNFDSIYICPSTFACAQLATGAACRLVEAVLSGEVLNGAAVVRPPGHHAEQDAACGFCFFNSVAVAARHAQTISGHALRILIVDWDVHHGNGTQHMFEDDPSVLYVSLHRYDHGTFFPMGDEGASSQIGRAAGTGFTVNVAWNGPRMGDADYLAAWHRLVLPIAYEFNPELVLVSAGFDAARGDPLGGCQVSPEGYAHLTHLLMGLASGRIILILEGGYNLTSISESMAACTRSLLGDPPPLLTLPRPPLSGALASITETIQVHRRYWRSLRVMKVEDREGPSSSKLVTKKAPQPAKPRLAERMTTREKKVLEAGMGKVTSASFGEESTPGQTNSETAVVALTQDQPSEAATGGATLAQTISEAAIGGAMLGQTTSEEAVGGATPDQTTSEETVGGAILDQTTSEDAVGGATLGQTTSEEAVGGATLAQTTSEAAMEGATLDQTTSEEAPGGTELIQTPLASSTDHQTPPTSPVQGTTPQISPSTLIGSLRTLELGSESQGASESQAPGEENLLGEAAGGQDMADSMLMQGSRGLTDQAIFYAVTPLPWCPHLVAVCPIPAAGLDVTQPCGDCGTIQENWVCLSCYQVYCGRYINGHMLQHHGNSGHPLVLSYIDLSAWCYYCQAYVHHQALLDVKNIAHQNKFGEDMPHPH
measurementNotes: HDAC6 enzyme activity inhibition assay (HDAC Fluorimetric Drug Discovery Kit)
Type: biochemical
recordedConditions: HDAC6 versus HDAC1
assayReadout: HDAC6 selectivity (fold)
Your answer should be a plain number; it is taken to be in fold.

Take a look at these entries with their results.
| molecule | targetOfAssay | valueUnit | HDAC6 selectivity (fold) |
| --- | --- | --- | --- |
| CC(=O)N1CCN(S(=O)(=O)N(Cc2ccc(-c3nnc(C(F)(F)F)o3)cc2F)c2ccccc2)CC1 [Compound 11294] | human recombinant HDAC6 (Homo sapiens (Human), UniProt Q9UBN7) | fold | 1411 |
| CN1CCN(S(=O)(=O)N(Cc2ccc(-c3nnc(C(F)F)o3)cc2F)c2ccccc2)CC1 [Compound 11306] | human recombinant HDAC6 (Homo sapiens (Human), UniProt Q9UBN7) | fold | 4363 |
| Cl.O=S(=O)(N1CCC2(CC1)CNC2)N(Cc1ccc(-c2nnc(C(F)F)o2)cc1)c1ccccc1 [Compound 11787] | human recombinant HDAC6 (Homo sapiens (Human), UniProt Q9UBN7) | fold | 1041 |
| Cc1cccc(N(Cc2ccc(-c3nnc(C(F)F)o3)cn2)S(=O)(=O)N2CCN(C3COC3)[C@H](C)C2)c1 [Compound 11824] | human recombinant HDAC6 (Homo sapiens (Human), UniProt Q9UBN7) | fold | 2000 |
| Cc1cccc(N(Cc2ccc(-c3nnc(C(F)F)o3)cn2)S(=O)(=O)N2CCN(C3COC3)CC2)c1 [Compound 11833] | human recombinant HDAC6 (Homo sapiens (Human), UniProt Q9UBN7) | fold | 2040 |

Lab note: O=S(=O)(N1CCOCC1)N(Cc1ccc(-c2nnc(C(F)(F)F)o2)cc1)c1ccc(F)cc1 [Compound 11198] gave HDAC6 selectivity (fold) of 738

The reported HDAC6 selectivity (fold) of the molecule CS(=O)(=O)N1CCN(S(=O)(=O)N(Cc2ccc(-c3nnc(C(F)(F)F)o3)cc2F)c2cccc(F)c2)CC1 [Compound 11310] was 1311

Reference for the values: patent US10464911B2
